Hi there, I'd appreciate the recorded combination Emax for every entry that follows.
tested on: BE2-M17 (Neuroblastoma); test: combination Emax (second highest fraction inhibited in the dose matrix, 72 h); higher = more inhibition; extreme values may be limits of the assay
Answers are plain numbers.

COc1cccc(OCCCN)c1-c1cc(Nc2cnc(C#N)cn2)n[nH]1 [Prexasertib] + C=CCn1c(=O)c2cnc(Nc3ccc(N4CCN(C)CC4)cc3)nc2n1-c1cccc(C(C)(C)O)n1 [AZD1775] (first compound max 1 µM, partner max 1 µM)	0.998

Now take the following compound into account.
So for CC1(C)CCC(CN2CCN(c3ccc(C(=O)NS(=O)(=O)c4ccc(NCC5CCOCC5)c([N+](=O)[O-])c4)c(Oc4cnc5[nH]ccc5c4)c3)CC2)=C(c2ccc(Cl)cc2)C1 [Venetoclax] + Cc1cc2ncnn2cc1Nc1ncc2c(n1)n(C1CCOCC1)c(=O)n2C [AZD7648] (first compound max 1 µM, 7x7, partner max 10 µM) , the logged combination Emax turned out to be 0.276

###

system: CAL-72 (Osteosarcoma); assay: Bliss excess, mean over the matrix (fraction); higher = more synergy
Hi there, I'd appreciate the recorded Bliss excess for every entry that follows.
Give bare numbers.

Some molecules with recorded Bliss excess:
CN(CCO)CC[C@H](CSc1ccccc1)Nc1ccc(S(=O)(=O)NC(=O)c2ccc(N3CCC([C@@H](O)c4ccccc4-c4ccc(Cl)cc4)CC3)cc2)cc1S(=O)(=O)C(F)(F)F [AZD4320] + C[C@@H]1COCCN1C2=NC(=NC(=C2)C3(CC3)[S@](=N)(=O)C)C4=C5C=CNC5=NC=C4 [AZD6738] (first compound max 1 µM, 7x7, partner max 10 µM)	0.05
Cc1nc(Nc2ncc(C(=O)Nc3c(C)cccc3Cl)s2)cc(N2CCN(CCO)CC2)n1 [Dasatinib] + CC(=O)Nc1cccc(-n2c(=O)n(C3CC3)c(=O)c3c(Nc4ccc(I)cc4F)n(C)c(=O)c(C)c32)c1 [Trametinib] (first compound max 2 µM, 7x7, partner max 1 µM)	-0.0409

Form field Bliss excess for item C[C@@H]1COCCN1c1cc(C2([S@](C)(=N)=O)CC2)nc(-c2ccnc3[nH]ccc23)n1 [AZD6738] + Nc1ccn([C@@H]2O[C@H](CO)[C@@H](O)C2(F)F)c(=O)n1 [Gemcitabine] (first compound max 10 µM, 7x7, partner max 0.3 µM) on CAL-72 (Osteosarcoma): 0.0282

###

test system: SAS (Oral Cavity Carcinoma); assay: Bliss excess, mean over the matrix (fraction); higher = more synergy
Hi there, I'd appreciate the recorded Bliss excess for every entry that follows.
Answers are plain numbers.

CN(CCO)CC[C@H](CSc1ccccc1)Nc1ccc(S(=O)(=O)NC(=O)c2ccc(N3CCC([C@@H](O)c4ccccc4-c4ccc(Cl)cc4)CC3)cc2)cc1S(=O)(=O)C(F)(F)F [AZD4320] + C[C@@H](Nc1cc(F)cc(F)c1)c1cc(C(=O)N(C)C)cc2c(=O)cc(N3CCOCC3)oc12 [AZD8186] (first compound max 1 µM, 7x7, partner max 3 µM)	0.0033
NC1(C(=O)N[C@@H](CCO)c2ccc(Cl)cc2)CCN(c2ncnc3[nH]ccc23)CC1 [Capivasertib] + Cn1cnc2c(F)c(Nc3ccc(Br)cc3Cl)c(C(=O)NOCCO)cc21 [Selumetinib] (first compound max 10 µM, 7x7, partner max 10 µM)	0.0089

Now take the following molecule into account.
So for O=C(c1cc(Cc2n[nH]c(=O)c3ccccc23)ccc1F)N1CCN(C(=O)C2CC2)CC1 [Olaparib] + Cc1c2c(nn1C)CSCc1cc(n(C)n1)CSc1cc(c3ccccc3c1)OCCCc1c(C(=O)O)n(C)c3c-2c(Cl)ccc13 [AZD5991] (first compound max 10 µM, 7x7, partner max 1 µM) , the logged Bliss excess turned out to be -0.0344
